Tested on: Differentiated U937 cells
TEST NAME: MTT assay: cell viability on exposure to test compounds
Format: cell-based, human
CONDITIONS: percentage loss of cell viability vs vehicle; 10 μg/mL, 4 hr, 5% FCS
Marks after values point to notes of the source that are not given here.
# maps each entry to its MTT Assay (Viability) 4 h d-U937

COCCOCC(=O)Nc1cc(Cc2ccc(NC(=O)Nc3cc(C(C)(C)C)nn3-c3ccc(C)cc3)c3ccccc23)ccn1 [Example 65]    −1.5^b %
COCC(=O)Nc1cc(C(=O)c2ccc(NC(=O)Nc3cc(C(C)(C)C)nn3-c3ccc(C)cc3)c3ccccc23)ccn1 [Example 66]    11.0^b %
COCCOCC(=O)Nc1cc(C(=O)c2ccc(NC(=O)Nc3cc(C(C)(C)C)nn3-c3ccc(C)cc3)c3ccccc23)ccn1 [Example 22]    21.1^b %
COCC(=O)Nc1cc(Cc2ccc(NC(=O)Nc3cc(C(C)(C)C)nn3-c3ccc(C)cc3)c3ccccc23)ccn1 [Example 64]    −3.7^b %

Return reported MTT Assay (Viability) 4 h d-U937 for target or system Differentiated U937 cells, item CCNC(=O)Nc1cc(C(=O)c2ccc(NC(=O)Nc3cc(C(C)(C)C)nn3-c3ccc(C)cc3)c3ccccc23)ccn1 [Example 67] .
−9.9^b %

Return reported MTT Assay (Viability) 4 h d-U937 for target or system Differentiated U937 cells, item CCNC(=O)Nc1cc(Cc2ccc(NC(=O)Nc3cc(C(C)(C)C)nn3-c3ccc(C)cc3)c3ccccc23)ccn1 [Example 23] .
15.2^b %
